Target: Carbonic anhydrase 9 (Homo sapiens, UniProt Q16790)
Parameter: log10 of Ki. Scope: all listed entries.
Could you please treat all values as log10 of Ki in nM?

Answered cases to consult:
Asked: Give log10 of Ki (Carbonic anhydrase 9 (Homo sapiens, UniProt Q16790)) of the following compound: NS(=O)(=O)c1ccc(-n2cc(CO[C@@H]3O[C@H](CO)[C@@H](O[C@H]4O[C@H](CO)[C@@H](O)[C@H](O)[C@H]4O)[C@H](O)[C@H]3O)nn2)cc1
Given back: 1.92

Asked: Give log10 of Ki (Carbonic anhydrase 9 (Homo sapiens, UniProt Q16790)) of the following compound: [N-]=[N+]=Nc1ccc(S(N)(=O)=O)cc1
Given back: 2.02

Asked: Give log10 of Ki (Carbonic anhydrase 9 (Homo sapiens, UniProt Q16790)) of the following compound: CC(=O)OC[C@H]1O[C@@H](OCc2cn(-c3ccc(S(N)(=O)=O)cc3)nn2)[C@H](OC(C)=O)[C@@H](OC(C)=O)[C@H]1OC(C)=O
Given back: 0.99

Asked: Give log10 of Ki (Carbonic anhydrase 9 (Homo sapiens, UniProt Q16790)) of the following compound: NS(=O)(=O)c1ccc(-n2cc(CO[C@@H]3O[C@H](CO)[C@@H](O)[C@H]3O)nn2)cc1
Given back: 1.84

For the next question, use this compound.
Asked: Give log10 of Ki (Carbonic anhydrase 9 (Homo sapiens, UniProt Q16790)) of the following compound: CC(=O)OC[C@H]1O[C@@H](OCc2cn(-c3ccc(S(N)(=O)=O)cc3)nn2)[C@H](OC(C)=O)[C@@H](OC(C)=O)[C@@H]1OC(C)=O
Given back: 2.03
